Subject of test: AM2 S31 (wild-type serine at position 31 in the M2 protein), influenza virus A/Udorn/72 (Influenza A virus)
Sequence (P0DOF5 whole entry, looked up): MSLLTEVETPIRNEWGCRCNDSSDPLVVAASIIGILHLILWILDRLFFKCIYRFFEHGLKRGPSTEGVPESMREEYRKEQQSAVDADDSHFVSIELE
Test protocol: cell-based
Condition parameters: Table 1; 100 uM; Xenopus oocytes, pH 5.5, -20 mV; read-out: S31 OOcyte Inhibition at 100 uM (%)
Property label: inhibition at 100 µM

Query (molecule): CC(C)(C)CC(C)(C)NCc1ccc(O)cc1O [Example 112] ; field requested: inhibition at 100 µM 31 to 95%

Query (molecule): Fc1ccc(CNC23CC4CC(CC(C4)C2)C3)c(F)c1 [Example 54] ; field requested: inhibition at 100 µM 31 to 95%

Query (molecule): COc1ccc(CNC23CC4CC(CC(C4)C2)C3)cc1 [Example 16, Adamantan-1-yl-(4-methoxy-benzyl)-amine] ; field requested: inhibition at 100 µM 31 to 95%

Query (molecule): c1ccc2oc(CNC34CC5CC(CC(C5)C3)C4)cc2c1 [Example 89] ; field requested: inhibition at 100 µM 0 to 30%

Query (molecule): c1cnc2sc(CNC34CC5CC(CC(C5)C3)C4)cc2c1 [Example 90] ; field requested: inhibition at 100 µM 0 to 30%

Query (molecule): CC(C)(C)C1CCC(NCc2ccc(O)cc2O)CC1 (centres unmarked) [Example 109] ; field requested: inhibition at 100 µM 31 to 95%

Query (molecule): c1ccc(CNC23CC4CC(CC(C4)C2)C3)cc1 [Example 8, Adamantan-1-yl-benzyl-amine] ; field requested: inhibition at 100 µM 31 to 95%

Query (molecule): c1csc(-c2ccc(CNC34CC5CC(CC(C5)C3)C4)s2)c1 [Example 78] ; field requested: inhibition at 100 µM 0 to 30%

Query (molecule): c1ccc2[nH]c(CNC34CC5CC(CC(C5)C3)C4)nc2c1 [Example 92] ; field requested: inhibition at 100 µM 0 to 30%

Query (molecule): O=[N+]([O-])c1ccccc1CNC12CC3CC(CC(C3)C1)C2 [Example 30, Adamantan-1-yl-(2-nitro-benzyl)-amine] ; field requested: inhibition at 100 µM 31 to 95%

Query (molecule): Oc1ccc(CN2CC3CC4CC(C3)CC2C4)c(O)c1 [Example 116] ; field requested: inhibition at 100 µM 31 to 95%

Query (molecule): c1ccc2sc(CNC34CC5CC(CC(C5)C3)C4)nc2c1 [Example 91] ; field requested: inhibition at 100 µM 0 to 30%

Query (molecule): Oc1ccc(CNC2C3CC4CC(C3)CC2C4)c(O)c1 (centres unmarked) [Example 100] ; field requested: inhibition at 100 µM 31 to 95%

Query (molecule): c1nc(-c2ccc(CNC34CC5CC(CC(C5)C3)C4)cc2)no1 [Example 40] ; field requested: inhibition at 100 µM 0 to 30%

Query (molecule): Oc1cc(F)c(CNC23CC4CC(CC(C4)C2)C3)c(F)c1 [Example 69] ; field requested: inhibition at 100 µM 31 to 95%

Query (molecule): O=C(Oc1ccc(CNC23CC4CC(CC(C4)C2)C3)cc1)c1cccs1 [Example 37] ; field requested: inhibition at 100 µM 0 to 30%

Query (molecule): c1cc(-c2ccc(CNC34CC5CC(CC(C5)C3)C4)cc2)co1 [Example 42] ; field requested: inhibition at 100 µM 0 to 30%

Query (molecule): Oc1c(CNC23CC4CC(CC(C4)C2)C3)ccc2ccccc12 [Example 97] ; field requested: inhibition at 100 µM 31 to 95%

Query (molecule): c1ccc2[nH]c(CNC34CC5CC(CC(C5)C3)C4)cc2c1 [Example 93] ; field requested: inhibition at 100 µM 0 to 30%

Query (molecule): COc1ccccc1CNC12CC3CC(CC(C3)C1)C2 [Example 29, Adamantan-1-yl-(2-methoxy-benzyl)-amine] ; field requested: inhibition at 100 µM 0 to 30%

Query (molecule): Oc1cccc(CNC23CC4CC(CC(C4)C2)C3)c1O [Example 64] ; field requested: inhibition at 100 µM 31 to 95%

Query (molecule): c1cc2[nH]c(CNC34CC5CC(CC(C5)C3)C4)cc2s1 [Example 80] ; field requested: inhibition at 100 µM 31 to 95%

Query (molecule): C[S+]([O-])c1ccc(CNC23CC4CC(CC(C4)C2)C3)cc1 (centres unmarked) [Example 24] ; field requested: inhibition at 100 µM 0 to 30%

Query (molecule): N=C(Nc1ccc(O)cc1)C12CC3CC(CC(C3)C1)C2 [Example 5] ; field requested: inhibition at 100 µM 31 to 95%

Query (molecule): OC1CCN(C2C3CC4CC(C3)CC2C4)CC1 (centres unmarked) [Example 104, 1-Adamantan-2-yl-piperidin-4-ol] ; field requested: inhibition at 100 µM 0 to 30%

Query (molecule): c1cc(CNC23CC4CC(CC(C4)C2)C3)c2cc[nH]c2c1 [Example 96] ; field requested: inhibition at 100 µM 31 to 95%
